- System: P388 leukemia ip, CD2F1 mice, survival T/C
- assay: NCI In Vivo Anticancer Drug Screen. Data for tumor model P388 Leukemia (intraperitoneal) in CD2F1 (CDF1) mice
- study_conditions: endpoint: median survival time; dose: 200.0 mg/kg/injection; schedule: Q01DX005 (ip); vehicle: Klucel (hydroxypropylcellulose) (HPC); higher = longer survival
Inconclusive results and toxic doses are left out.
readout_type: T/C

Task: Entry under review: "Cc1nc2ncn(-c3ccccc3)c2c(=O)n1Cc1ccco1" . Reported T/C?
Output: 95 % of control

Task: Input "Nc1nc(-c2ccccc2)nc2sc3c(c12)CCCC3"
Output: 103 % of control

Task: Another compound to look at: "O=C(Nc1cccnc1)c1ccc(CSc2ccc(Cl)cc2)o1"
Output: 111 % of control
